Read-out: Tissue plasminogen activator (tPA), PLAT (gene 5327)
EXPERIMENT_SUMMARY: BSK_BE3C_tPA: BioMAP Diversity Plus: BE3C Assay for Tissue plasminogen activator (tPA) Biomarker Activity (AID 2283041);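 note: tPA level quantified by ELISA one day after compound addition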
SETTINGS: primary human bronchial epithelial cells; actives raise or lower the signal
Protocol: BSK_BE3C is a cell-based, multiplexed-readout assay that uses bronchial epithelial cell, a human lung primary cell, with measurements taken at 24 hours after chemical dosing in a 96-well plate.BSK_BE3C_tPA is an assay component measured in the BSK_BE3C assay. It measures tPA antibody related to regulation of gene expression using ELISA technology.Data from the assay component BSK_BE3C_tPA was analyzed into 1 assay endpoint. […]
The source made the active and inactive calls. Rule for the calls: active = hit-call score of the fitted dose curve at least 0.9, where 1 is the maximum; inactive = score below 0.9.
Respond with a class label; see active, inactive

Below, 2 compounds whose answers are already recorded.
COMPOUND	GROUP_LABEL
CCOC(=O)[C@]1(c2ccccc2)Oc2ccccc2[C@@H]1N	inactive
Cc1ccc(N=C=O)cc1N=C=O	inactive

Which outcome was entered for the compound [As]#[In] in this test?
inactive
